PROCEDURE SUMMARY: acute toxicity investigation in mice
PARTICULARS: mouse, in vivo, po, read-out: LD50 (mg/kg) p.o.
Please go through the items and note down their LD50.
Lab book: enter the figure in mg/kg, no units written.

In: Give the value of LD50 reported for the following: CCCCNC(=N)NC(=N)Nc1onc(C)c1C [Example 26]
Out: 250

In: Give the value of LD50 reported for the following: Cc1noc(NC(=N)NC(=N)N)c1C [Example 25]
Out: 300

* * *

PROCEDURE SUMMARY: acute toxicity investigation in mice
PARTICULARS: mouse, in vivo, iv, read-out: LD50 (mg/kg) i.v.
Please go through the items and note down their LD50.
Lab book: enter the figure in mg/kg, no units written.

In: Give the value of LD50 reported for the following: Cc1cc(N(C)C(=N)NC(=N)N)no1
Out: 70

In: Give the value of LD50 reported for the following: CCCCNC(=N)NC(=N)Nc1onc(C)c1C
Out: 35

In: Give the value of LD50 reported for the following: Cc1noc(NC(=N)NC(=N)N)c1C
Out: 20
